Reported DYSP survivors by item:
- Test system: histamine-induced dyspnea
- Procedure Details: Bronchodilator (in vivo) Guinea Pig Dyspnea
- Condition Set: 100 mg/kg, oral, one hour before histamine challenge

In the examples that follow, each entry is paired with its recorded DYSP survivors.
1) CN1C2CCC1C1=C(C2)C(c2ccc(F)cc2)c2ccccc21 (stereo not shown) : 3/3
2) COc1ccc(C2c3ccccc3C3C2CC2CCC3N2C)cc1 (stereo not shown) : 2/3
3) CN1C2CCC1C1C(=C(c3ccc(F)cc3)c3ccccc31)C2 (stereo not shown) : 3/3
4) CN1C2CCC1C1C(=C(c3cccc(F)c3)c3cc(F)ccc31)C2 (stereo not shown) : 1/3

Problem: Give DYSP survivors for this entry on histamine-induced dyspnea: CN1C2CCC1C1C(=C(c3ccc(F)cc3)c3cc(F)ccc31)C2 (stereo not shown)
Result: 1/3

Problem: Fetch value of DYSP survivors on histamine-induced dyspnea for CN1C2CCC1C1C(=C(c3ccccc3)c3cc(F)ccc31)C2 (stereo not shown) .
Result: 1/3

Problem: State measured DYSP survivors of the compound CN1C2CCC1C1C(=C(c3ccc(Cl)cc3)c3ccccc31)C2 (stereo not shown) with histamine-induced dyspnea.
Result: 0/3

Problem: State the measured DYSP survivors (histamine-induced dyspnea) of CN1C2CCC1C1C(=C(c3cccc(Cl)c3)c3ccccc31)C2 (stereo not shown)
Result: 1/3

Problem: State DYSP survivors on histamine-induced dyspnea. Entry: CN1C2CCC1C1C(=C(c3ccc(Cl)cc3)c3cc(F)ccc31)C2 (stereo not shown)
Result: 2/3

Problem: Find the measured DYSP survivors of CN1C2CCC1C1C(=C(c3ccc(Cl)c(C(F)(F)F)c3)c3ccccc31)C2 (stereo not shown) with histamine-induced dyspnea as test system.
Result: 0/3
